experiment_notes: chemical genetic growth profiling, strain panel (AID 1159580);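 also: tested at 20 µM; growth read once vehicle control cultures reached saturation at 30 °C; 1 = growth at the plate median or of vehicle wells; lower values mean less growth of the strain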
particulars: S. cerevisiae deletion strains, growth OD, locus YKL009W, strain mrt4
Hit rate of the full screen: of about 5,500 compounds, about 2,000 (36%) were called active. About 18% were inconclusive and are not listed. Rule as the data show it: active = normalized growth mostly below about 0.91 (no sharp cut-off); inconclusive = no clear call, values can overlap the other calls; inactive = mostly above about 0.92. The list shows a part of the results.
Outcome codes: label 1 for active, label 0 for inactive

OCC(O)C(O)C(O)C(O)C(O)CO (stereo not drawn): label 0
CC1CC[C@@]2(OC1)O[C@H]1CC3C4CC[C@@H]5C[C@@H](O)CC[C@]5(C)C4CC[C@]3(C)[C@H]1[C@@H]2C (stereo partly drawn): label 0
Oc1ccc2c(c1)OCC1(O)Cc3cc(O)c(O)cc3C21 (stereo not drawn): label 0
C[C@@H]1CC[C@@]2(NC1)O[C@H]1C[C@H]3C4CC=C5C[C@@H](O)CC[C@]5(C)C4CC[C@]3(C)C1[C@@H]2C (stereo partly drawn): label 1
CCC/C=C1\OC(=O)C2=C1CCC=C2: label 1
C[C@@H]1CC[C@@]2(OC1)OC1CC3C4CC=C5C[C@@H](O)CC[C@]5(C)C4CC[C@]3(C)C1[C@@H]2C (stereo partly drawn): label 0
CC1CCC2(OC1)OC1CC3C4CC[C@H]5C[C@@H](O)CC[C@]5(C)C4CC(=O)[C@]3(C)C1C2C (stereo partly drawn): label 0
COc1ccc(-c2cc(=O)c3c(O)cc(O[C@H]4O[C@H](CO[C@@H]5O[C@@H](C)[C@H](O)[C@@H](O)[C@H]5O)[C@@H](O)[C@H](O)[C@H]4O)cc3o2)cc1: label 0
